# ASSAY_NAME: ATG_PBREM_CIS: Attagene CIS-FACTORIAL HepG2 Assay for human Phenobarbital-responsive Enhancer Module (PBREM) (AID 2282955)
# CONDITIONS_USED: HepG2 PBREM cis-reporter, Attagene multiplexed transcription; actives raise or lower the signal
Calls of active or inactive are those of the source. The calls were made as follows: active = hit-call score of the fitted dose curve at least 0.9, where 1 is the maximum; inactive = score below 0.9.
Labels: active, inactive

> print(dat)
                                    compound  assigned.class
 1                CCOc1ccc(NC(=O)CC(C)=O)cc1        inactive
 2                              CCCCCCCCSCCO        inactive
 3                    COc1ccccc1[N+](=O)[O-]        inactive
 4  CC(C)C[C@H](NC(=O)OCC1c2ccccc2-c2ccccc21)C(=O)O        inactive
 5        CCCCC1CCC(O)CC1 (stereo not drawn)        inactive
 6  CCCCCCCCCCCCCCCC(=O)OC/C=C(C)/C=C/C=C(C)/C=C/C1=C(C)CCCC1(C)C        inactive
 7               CCCCOC(=O)CCCCCCCC(=O)OCCCC        inactive
 8       C#CC(C)(O)CC(C)C (stereo not drawn)        inactive
 9                                 CC(C)OCCO        inactive
10                                   CSCCC=O        inactive
11              CC(C)CCCCCCc1ccc(OCCOCCO)cc1        inactive
12                               CC1(C)COCN1        inactive
13                       FC(F)(F)COCC(F)(F)F        inactive
14  COCCc1ccc(OCC(O)CNC(C)C)cc1 (stereo not drawn)        inactive
15                            CC(=O)c1ccccn1        inactive
16                                N#Cc1cscn1        inactive
17                     C=Cc1ccc(C(C)(C)C)cc1        inactive
18  CCOc1ccc(N=Nc2ccc(C=Cc3ccc(N=Nc4ccc(OCC)cc4)cc3S(=O)(=O)O)c(S(=O)(=O)O)c2)cc1        inactive
19                       COC(=O)c1ccc(OC)cc1        inactive
20                           COc1cccc(OC)c1O        inactive
21                               ON=C1CCCCC1        inactive
22                     O=C1CCCC=CCCCCCCCCCC1        inactive
23                       CC=CC=CCOC(=O)C(C)C        inactive
24              O=c1[nH]c(=O)c2cn[nH]c2[nH]1        inactive
25         C[Si]1(C)O[Si](C)(C)O[Si](C)(C)O1        inactive
26                            C=CC(=O)OCCC#N        inactive
27                    Cc1ccc2c(c1)C(=O)OC2=O        inactive
28                        COc1cc(C(C)C)ccc1C        inactive
29                          C=CCOC(=O)CCCCCC        inactive
30   CCCCCCCC(=O)OCC(O)CO (stereo not drawn)        inactive
31              CSc1c(Cl)c(Cl)c(Cl)c(Cl)c1Cl        inactive
32  CN(C)CCOc1ccc(/C(=C(/CCCl)c2ccccc2)c2ccccc2)cc1        inactive
33   C1=CC2C3C=CC(C3)C2C1 (stereo not drawn)        inactive
34                      c1ccc(CCc2ccccc2)cc1        inactive
35  O=C1OC[C@H](Cc2cccc(O)c2)[C@H]1Cc1cccc(O)c1          active
36                     OCc1cccc(Oc2ccccc2)c1        inactive
37                                  C1CCCCC1        inactive
38                               COCCOCCOCCO        inactive
39    CC(C)=CCCC(C)CCOC=O (stereo not drawn)        inactive
40                          CCCCCCCCCC(=O)OC        inactive
41                                   CCCOCCO        inactive
42  CCCCCCCCCCCC(=O)OC[C@@H](O)[C@H]1OC[C@H](O)[C@H]1O        inactive
43      CCCCC(CC)COC(C)=O (stereo not drawn)        inactive
44  Nc1ccc2cc(S(=O)(=O)O)cc(O)c2c1N=Nc1ccccc1C(F)(F)F        inactive
45                           O=C(O)COCC(=O)O        inactive
46      O=C(Nc1ccc2c(c1)Cc1ccccc1-2)C(F)(F)F        inactive
47  N[C@@H](Cc1cc(I)c(Oc2cc(I)c(O)c(I)c2)c(I)c1)C(=O)O          active
48  CCCCCCC(O)CCCCCCCCCCC(=O)O (stereo not drawn)        inactive
49                               CCOCCOCCOCC        inactive
50                       CCOC(=O)c1ccc(N)cc1        inactive
51  COc1cc([C@@H]2c3cc4c(cc3[C@@H](O[C@@H]3O[C@@H]5CO[C@@H](C)O[C@H]5[C@H](O)[C@H]3O)[C@H]3COC(=O)[C@H]23)OCO4)cc(OC)c1O        inactive
52                      CN1C(=O)c2ccccc2C1=O        inactive
53  CCN(CCC#N)c1ccc(N=Nc2ccc([N+](=O)[O-])cc2)cc1        inactive
54  CC1(C)CCC[C@]2(C)[C@H]3CCO[C@]3(C)CC[C@@H]12        inactive
55               COc1ccc(N)c([N+](=O)[O-])c1        inactive
56  CC(=O)C1(C)CC2=C(CCCC2(C)C)CC1C (stereo not drawn)          active
57  COc1ccc(N=Nc2cc(C)c(N=Nc3ccc(S(=O)(=O)O)cc3)cc2OC)cc1        inactive
58                  Cc1occc(=O)c1OC(=O)C(C)C        inactive

The measured values listed here are drawn from PubChem BioAssay (EPA / NIEHS).
